Task for the reader: assign each of the following compounds its reported TGI.
# Test system: SNB-19 CNS
# experiment_summary: NCI tumour cell line growth inhibition, 48 h

Examples with their reported TGI follow.
>  <structure_smiles_string>
Cc1nc2nc(C)n(CCN3CCOCC3)c(=O)c2c(-c2cccc([N+](=O)[O-])c2)c1C(=O)CCCCCCCCCCN1CCC(c2ccccc2)(c2ccccc2)CC1

>  <test_system>
SNB-19 CNS

>  <recorded_metric>
TGI

>  <result>
4.3 µg/mL

$$$$
>  <structure_smiles_string>
CC(C)(C)OC(=O)N(O)[C@@H]1CC[C@H](n2cnc3c(N)ncnc32)C1

>  <test_system>
SNB-19 CNS

>  <recorded_metric>
TGI

>  <result>
> 100 µM

$$$$

Consider now this further compound.
Recorded TGI (compound `O=C(Nc1nc(-c2ccc(Cl)cc2)cs1)c1cc(O)c(O)c(O)c1` ): > 5000 µM

* * *

# System: ACHN renal
# experiment_summary: NCI tumour cell line growth inhibition, 48 h
recorded_metric: TGI

Solved cases below.
>  <compound>
C=CCn1c2ccccc2c2c3c(c4c5ccccc5n(CC=C)c4c21)C(=O)N(O)C3=O

>  <TGI>
3.89 µM

$$$$
>  <compound>
C=C1C(=O)O[C@H](c2ccoc2)C[C@@H]1[C@@]1(C)CCCC2(C)C(=O)OCC21 (stereo not given in full)

>  <TGI>
> 100 µM

$$$$
>  <compound>
CN(c1ccccc1)c1cc2ccccc2nn1

>  <TGI>
> 100 µM

$$$$
>  <compound>
CN(C)c1ccc(/C=C(\C#N)c2cc3ccccc3[nH]2)cc1

>  <TGI>
> 100 µM

$$$$
>  <compound>
O=C(/C=C/c1ccc(Cl)c(Cl)c1)c1ccccc1Cl

>  <TGI>
28.6 µM

$$$$

# return TGI for each item in the list
1. NS(=O)(=O)c1nnc(NS(=O)(=O)c2ccccc2[N+](=O)[O-])s1
2. O=S(=O)(NC1=NCCN1C(=S)SN1CCn2c1nsc2=S)c1ccc(Oc2ccccc2)cc1
3. c1ccc(C2=NN2c2ccccc2)cc1
4. Nc1[nH]nc2nc(-c3cc(Cl)ccc3Cl)cc(-c3ccc(F)cc3)c12
5. COC(=O)/C=C/CCC#Cc1ccccc1C#CCC/C=C/C(=O)OC

Completion:
1. > 100 µM
2. > 100 µM
3. > 100 µM
4. > 100 µM
5. > 100 µM

* * *

# System: NCI-H226 lung
# experiment_summary: NCI tumour cell line growth inhibition, 48 h
Where a SMILES comes first, the peptide text is derived from it. [ ]: non-standard residue; d: D form. The star is where a group is joined. NMeF = CN[CH](Cc1ccccc1)C(=O)O; NMeV = CN[CH](C(=O)O)C(C)C; Boc = CC(C)(C)OC(=O)*; OBn = c1ccc(CO*)cc1
recorded_metric: TGI

Give TGI for all compounds that follow.
1. CNC(=O)C(C)Oc1ccc(OCC2CCCCC2)cc1 (stereo not given)
2. CC(C)C(NC(=O)OC(C)(C)C)C(=O)N(C)C(Cc1ccccc1)C(=O)N(C)C(C(=O)OCc1ccccc1)C(C)C (stereo not drawn) (Boc-Val-[NMeF]-[NMeV]-OBn; configuration not given here)
3. CC1(C)c2ccccc2N2C(c3ccccc3)=NOC21C (stereo not given)
4. Cc1ccc(N(C=O)c2c([N+](=O)[O-])cc([N+](=O)[O-])c3c2=[N+]([O-])CN=3)cc1

Completion:
1. > 100 µM
2. > 100 µM
3. > 100 µM
4. > 100 µM

Entry `O=C(O)c1ccc2c(c1)C(=O)N(c1ccc(S(=O)(=O)c3ccc(N4C(=O)c5ccc(C(=O)O)cc5C4=O)cc3)cc1)C2=O` , TGI reported as > 100 µM

* * *

# System: MALME-3M melanoma
# experiment_summary: NCI tumour cell line growth inhibition, 48 h
recorded_metric: GI50

Take each entry in turn and give its GI50.
1. CCc1nc(C)cn1C(=O)OCc1nc2nc(Cl)nc(N3CCOCC3)c2[nH]1
2. COc1cc(C(=O)/C=C/c2cc(-c3ccc4c(c3)OCO4)n[nH]2)cc(OC)c1OC
3. Cn1ncc(C#N)c1-c1ccc2c(c1)CN([C@H](CN)Cc1cccc(F)c1)C2=O

Completion:
1. 1560 nM
2. 1850 nM
3. 1330 nM

Would you mind listing GI50 for each of the following compounds?
1. CCCCC(=O)N(c1ccc(Nc2c3ccccc3nc3cc([N+](=O)[O-])ccc23)cc1)S(C)(=O)=O
2. COC(=O)c1c[nH]c2cc(OC(C)C)c(OC(C)C)cc2c1=O

Completion:
["14300 nM", "> 100000 nM"]

* * *

# Tested on: M14 melanoma
# experiment_summary: NCI tumour cell line growth inhibition, 48 h
recorded_metric: TGI

Take a look at these entries with their results.
>  <molecule>
CCOC(=O)CN1C(=O)NC(C)(c2ccccc2)C1=O (centres undefined)

>  <test_system>
M14 melanoma

>  <recorded_metric>
TGI

>  <result>
> 100 µM

$$$$
>  <molecule>
Cc1cc(N2CCOCC2)nc2ccc(Cc3ccc4nc(N5CCOCC5)cc(C)c4c3)cc12

>  <test_system>
M14 melanoma

>  <recorded_metric>
TGI

>  <result>
> 100 µM

$$$$
>  <molecule>
COC(=O)C1C(C(=O)O)C2(c3ccccc3)C(=O)C1(c1ccccc1)C(c1ccccc1)=C2c1ccccc1 (centres undefined)

>  <test_system>
M14 melanoma

>  <recorded_metric>
TGI

>  <result>
35.7 µM

$$$$

Read the next record carefully.
Field TGI (M14 melanoma), entry `CCOC(=O)[C@@H]1[C@@H](c2ccccc2)N(C)O[C@@]1(c1ccccc1)C(F)(F)F` : > 100 µM

* * *

# System: A498 renal
# experiment_summary: NCI tumour cell line growth inhibition, 48 h
Where a SMILES comes first, the peptide text is derived from it. [ ]: non-standard residue; d: D form. ΔPro = O=C(O)[CH]1C=CCN1
Would you kindly list TGI for each of these molecules?

For orientation, consider the following solved cases.
>  <molecule>
COc1ccc(Oc2nc3cc(N)cc(N)c3nc2-c2ccccc2)cc1

>  <test_system>
A498 renal

>  <TGI>
> 100 µM

$$$$
>  <molecule>
CC(C)c1oc(=O)cc2c1C(O)C1OC(=O)C3(C)C(O)C4OC4C2(C)C13 (stereo unspecified)

>  <test_system>
A498 renal

>  <TGI>
1.41 µM

$$$$
>  <molecule>
Cc1ccc(N(C=O)c2c([N+](=O)[O-])cc([N+](=O)[O-])c3c2=[N+]([O-])CN=3)cc1

>  <test_system>
A498 renal

>  <TGI>
> 100 µM

$$$$
>  <molecule>
C=C(C)[C@H]1CC[C@@]23O[C@@H]2[C@@H](C[C@@]2(C)CC(=O)[C@H](CC(=O)C1)O2)OC(=O)[C@@]12CC[C@H](C(=C)C)CC(=O)C[C@H]4O[C@](C)(CC4=O)C[C@@H](OC3=O)[C@@H]1O2

>  <test_system>
A498 renal

>  <TGI>
> 100 µM

$$$$
>  <molecule>
O=C(O)C1C=CCN1C(=O)C1C=CCN1C(=O)C1C=CCN1 (stereo unspecified) (H-[ΔPro]-[ΔPro]-[ΔPro]-OH; configuration not given here)

>  <test_system>
A498 renal

>  <TGI>
> 100 µM

$$$$
>  <molecule>
COc1cccc2c1C(=O)c1c(O)c3c(c(O)c1C2=O)C[C@@](O)(C(=O)CO)CC3OC1CC(N)C(OC2CCCCO2)C(C)O1 (stereo partly specified)

>  <test_system>
A498 renal

>  <TGI>
1.16 µM

$$$$
>  <molecule>
O=C(Nc1ccncc1)C(=O)c1cn(S(=O)(=O)c2cccc(Cl)c2)c2ccccc12

>  <test_system>
A498 renal

>  <TGI>
> 100 µM

$$$$
>  <molecule>
CN(c1ccccc1)c1cc2ccccc2nn1

>  <test_system>
A498 renal

>  <TGI>
> 100 µM

$$$$

Please give TGI, item by item, for the list that follows.
1. Cc1nc2sc(C(=O)Nc3cccc(Br)c3C)c(N)c2cc1C(O)c1ccccc1 (stereo unspecified)
2. C/C(=N\NC(=O)c1ccncc1)c1sc(-n2nc(-c3ccccc3)cc2-c2ccccc2)nc1C
3. NCCCNc1nc2ccccc2c2c(=O)c3cc(F)ccc3sc12
4. COC(=O)c1c[nH]c2cc(OC(C)C)c(OC(C)C)cc2c1=O
5. C=C(Cl)/C(=C\Cl)CCC(Cl)C(C)C (stereo unspecified) (tested in a mixture with another compound)
6. Nc1cccc2c1-c1c(cccc1[N+](=O)[O-])C2=O
7. CCCC(=O)OCC1OC(n2cc(F)c(=O)[nH]c2=O)CC1O (stereo unspecified)

Completion:
0.058 µM
> 100 µM
3.36 µM
> 100 µM
34.6 µM
> 100 µM
> 9.04 µM

Data origin, for the record: PubChem BioAssay (NCI)
